test: Quantitative High-Throughput drug screen in 47 multiple myeloma cell lines against the NCATS MIPE library collection: KMS11_JCRBsus cell viability assay (AID 1919873); also: nearly all actives have a fitted effect of over 50% in size; also: potency is read from the fitted curve at half-maximal effect
experimental_parameters: KMS11 myeloma viability, CellTiter-Glo ATP luminescence, 48 h; series mostly up to 45.8 µM
Records with an inconclusive call do not appear. The source made the active and inactive calls. Calls follow the shape of the dose curve; as a rule, active = well fitted cell-killing curve with a large enough effect; inconclusive = small, poorly fitted or top-dose-only effect, or effect the other way; inactive = no such curve, though single readings can be large or run the other way.
parameter_measured: Potency

CCC[C@H](Nc1nc(-c2ccc(NC(=O)NCC)c(OC)c2)ncc1C)c1cccnc1    1.2 nM (active)
CCCCC(F)(F)[C@@]1(O)CC[C@H]2[C@H](CC(=O)[C@@H]2CCCCCCC(=O)O)O1    inactive
C=C1c2cccc(O)c2C(O)=C2C(=O)[C@@]3(O)C(O)=C(C(N)=O)C(=O)[C@@H](N(C)C)[C@@H]3[C@@H](O)[C@H]12    inactive
C[C@@]1(C(=O)Nc2ccc(F)nc2)CCCN1c1nc(Nc2cc(C3CC3)[nH]n2)c2cccn2n1    29.6 nM (active)

----------
test: qHTS of pediatric cancer cell lines to identify multiple opportunities for drug repurposing: Primary screen for SK-N-MC cells (AID 1347093)
experimental_parameters: SK-N-MC viability, CellTiter-Glo luminescence, 48 h; series mostly up to 46 µM
Results filed as inconclusive are left out. Activity calls are given as the source filed them. Calls come from the whole dose curve; as a rule, active = well fitted cell-killing curve with a large enough effect; inconclusive = small, poorly fitted or top-dose-only effect; inactive = no such curve, though single readings can be large or run the other way.
Just give me one of these, please: True = active, False = inactive

CC(C)(F)C[C@H](N[C@@H](c1ccc(-c2ccc(S(C)(=O)=O)cc2)cc1)C(F)(F)F)C(=O)NC1(C#N)CC1    False

// query Please state the recorded outcome for this compound: O=C(Nc1ncc(SCCN2CCCC2)s1)[C@]1(c2ccc(S(=O)(=O)C3CC3)cc2)C[C@@H]1C1CCCCC1
// result True

// query Please state the recorded outcome for this compound: Cc1cc2nc3c(=O)[nH]c(=O)nc-3n(CC(O)C(O)C(O)CO)c2cc1C (centres undefined)
// result True

// query Please state the recorded outcome for this compound: CO[C@H]1O[C@@H]2O[C@@]3(C)CC[C@@H]4[C@@H](C)CC[C@@H]([C@H]1C)[C@@]24OO3
// result True

----------
test: Quantitative High-Throughput drug screen in 47 multiple myeloma cell lines against the NCATS MIPE library collection: Karpas25_ECACC cell viability assay (AID 1918968; also: potency is read from the fitted curve at half-maximal effect; nearly all actives have a fitted effect of over 35% in size)
experimental_parameters: Karpas25 myeloma viability, CellTiter-Glo ATP, 48 h; series mostly up to 45.8 µM
Results filed as inconclusive are left out. The source made the active and inactive calls. The call rests on the fitted dose curve; in most records, active means well fitted cell-killing curve with a large enough effect; inconclusive means small, poorly fitted or top-dose-only effect, or effect the other way; inactive means no such curve, though single readings can be large or run the other way.
Just give me one of these, please: 1.0 for active, 0.0 for inactive

Fc1ccc(CNc2ncnc3ccc(F)cc23)cc1    1.0
Cc1c(-c2cccc3c(CCCOc4cccc5ccccc45)c(C(=O)O)n(Cc4cccnc4)c23)c(COc2ccc(N3CCN([S+](=O)([O-])N(C)C)CC3)cc2)nn1C    1.0
O=C(CC12CC3CC(CC(C3)C1)C2)Nc1cccc2nc(NCCNCCO)ccc12    1.0
O=S(=O)(NCCNCC=Cc1ccc(Br)cc1)c1cccc2cnccc12    1.0
C[C@]12CC[C@@H]3c4ccc(O)cc4CC[C@H]3[C@H]1[C@@H](O)[C@@H](O)[C@H]2O    1.0

// query Please state the recorded outcome for this compound: COc1ccc2nc3cc(Cl)ccc3c(Nc3cc(CN4CCCC4)c(O)c(CN4CCCC4)c3)c2n1
// result 1.0

// query Please state the recorded outcome for this compound: CCN1CCN(c2ccc(Nc3cc(N(C)C(=O)Nc4c(Cl)c(OC)cc(OC)c4Cl)ncn3)cc2)CC1
// result 1.0
